- Experimental system: SOAT (Homo sapiens)
- Construct: The full-length open reading frames of NTCP, ASBT, and SOAT were cloned; expressed in transfected cells; host or cells: Flp-In T-REX HEK293 (SOAT-HEK293), tetracycline-induced
- Sequence (Q3KNW5 1-377): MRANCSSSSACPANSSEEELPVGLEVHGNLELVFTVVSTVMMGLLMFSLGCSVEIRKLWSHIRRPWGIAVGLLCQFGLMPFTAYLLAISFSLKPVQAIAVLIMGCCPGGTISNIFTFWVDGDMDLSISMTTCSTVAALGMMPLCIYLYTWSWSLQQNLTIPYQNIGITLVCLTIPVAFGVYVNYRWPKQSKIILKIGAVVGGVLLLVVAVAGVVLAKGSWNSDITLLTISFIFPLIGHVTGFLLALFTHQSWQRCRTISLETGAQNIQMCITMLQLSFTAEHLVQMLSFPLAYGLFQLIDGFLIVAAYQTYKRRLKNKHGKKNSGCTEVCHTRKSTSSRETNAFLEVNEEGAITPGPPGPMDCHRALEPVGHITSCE
- Assay remarks: Transport inhibition in SOAT-HEK293 cells
- Format: cell-based
- Condition: SOAT IC50, substrate [3H]TLC, substrate inhibitors; 200 nM [3H]TLC, 1 min after 5 min preincubation
Counter-ions that a name gives are not always drawn.
Value type: pIC50
// pIC50 is dimensionless: -log10 of concentration (M)

[in] Please list pIC50 recorded for the compound C[C@]12CC[C@H](OS(=O)(=O)O)CC1=CC[C@@H]1[C@@H]2CC[C@]2(C)C(=O)CC[C@@H]12 [DHEAS, Dehydroepiandrosterone sulfate]
[out] 4.82

As a next step, examine the compound that follows.
[in] Please list pIC50 recorded for the compound C[C@H](CCC(=O)NCCS(=O)(=O)O)[C@H]1CC[C@H]2[C@@H]3[C@H](O)C[C@@H]4C[C@H](O)CC[C@]4(C)[C@H]3C[C@H](O)[C@]12C
[out] 3.84

Attribution: paper PMC8165160
